Target: T1, human GLP-2 receptor (hGLP2-R) (human, UniProt O95838)
T1 sequence: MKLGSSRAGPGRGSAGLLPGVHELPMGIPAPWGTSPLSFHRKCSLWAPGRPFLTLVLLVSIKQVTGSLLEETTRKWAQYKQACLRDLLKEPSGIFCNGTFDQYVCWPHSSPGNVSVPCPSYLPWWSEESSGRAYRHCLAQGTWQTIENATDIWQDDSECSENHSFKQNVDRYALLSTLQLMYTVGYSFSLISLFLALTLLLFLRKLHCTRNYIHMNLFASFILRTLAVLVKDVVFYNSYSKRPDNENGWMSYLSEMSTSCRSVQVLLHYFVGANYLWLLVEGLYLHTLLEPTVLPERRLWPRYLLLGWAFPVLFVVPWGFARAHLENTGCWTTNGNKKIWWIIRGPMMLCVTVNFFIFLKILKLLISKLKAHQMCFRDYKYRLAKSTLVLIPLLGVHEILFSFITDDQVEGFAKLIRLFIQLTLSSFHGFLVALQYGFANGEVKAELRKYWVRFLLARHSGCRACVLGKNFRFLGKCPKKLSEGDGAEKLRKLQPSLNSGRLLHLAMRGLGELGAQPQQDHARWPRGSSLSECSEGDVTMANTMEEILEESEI
Assay: cell-based or functional assay
Numbered stars: 1 amine (or outer) side, 2 acyl side, 3 side chain; on linkers, the order of the positions; unused ones are H or OH. Square brackets hold non-standard residues; d marks the D form. Side chains are listed from the residue outwards. * marks the point of attachment. C20 diacid = O=C(O)CCCCCCCCCCCCCCCCCCC(=O)*; C18 diacid = O=C(O)CCCCCCCCCCCCCCCCC(=O)*; γGlu = O=C(O)[C@H](CCC(=O)[*:2])N[*:1]; KEK = Lys-Glu-Lys peptide sequence; AEEA = NCCOCCOCC(=O)O; Aib = CC(C)(N)C(=O)O
Response field label takes Met when EC50 GLP-2 (nM), cAMP AlphaScreen is strictly below 0.08 nM and Not met in all other cases.

Use the examples below as a reference point.
INSERT INTO measurements (binder, discrete_label) VALUES
  ('H-H[Aib]EGSFTSELATILDK([AEEA-AEEA-KEK-γGlu-C20 diacid])QAARDFIAWLIEHKITD-OH [Compound 60]', 'Met'),
  ('H-H[Aib]EGTFSSELATILDK([γGlu-C18 diacid])KAARDFIAWLIEHKITD-OH [Compound 4]', 'Not met'),
  ('H-H[Aib]EGSFTSELATILDEQAAK([AEEA-KEK-γGlu-C20 diacid])DFIAWLIEHKITD-OH [Compound 64]', 'Not met'),
  ('H-H[Aib]EGTFSSELATILDK([AEEA-KEK-γGlu-C18 diacid])QAARDFIAWLIEHKITD-OH [Compound 49]', 'Met'),
  ('H-H[Aib]EGTFSSELATILDK([AEEA-KEK-γGlu-C20 diacid])QAARDFIAWLIEHKITD-OH [Compound 50]', 'Met');

stdin: Regarding H-H[Aib]EGSFTSELATILDK([AEEA-KEK-γGlu-C20 diacid])QAARDFIAWLIEHKITD-OH [Compound 57] , kindly confirm whether its EC50 GLP-2 (nM), cAMP AlphaScreen is beneath 0.08 nM.
stdout: Not met

stdin: Regarding H-H[Aib]EGSFTSELATILEGK([AEEA-KEK-γGlu-C20 diacid])AARDFIAWLIEHKITD-OH [Compound 61] , kindly confirm whether its EC50 GLP-2 (nM), cAMP AlphaScreen is beneath 0.08 nM.
stdout: Not met
